- System: PC-3
- procedure summary: Growth inhibition of human PC3 cells assessed as cell growth at 100 uM incubated for 48 hrs by sulforhodamine B assay relative to control
- Format: functional
- measurement conditions: PC-3, 48 h, read-out: Activity
Can you tell me growth at 100 µM for the items I'm about to list?
Just the number please, in %, no unit attached.

get_value(item= O=C(Nc1cccc(-n2cc(-c3ccncc3)c(-c3cc(O)cc(Cl)c3)n2)c1)Nc1ccc(Cl)c(Cl)c1 , readout=growth at 100 µM) returns -35

Value of measured growth at 100 µM for the entry O=C(Nc1cccc(-n2cc(-c3ccncc3)c(-c3cc(O)cc(Cl)c3)n2)c1)c1ccc(N2CCOCC2)c(C(F)(F)F)c1 : -8

For this molecule ( COc1cc(Cl)cc(-c2nn(-c3cccc(NC(=O)c4ccc(N5CCOCC5)c(C(F)(F)F)c4)c3)cc2-c2ccncc2)c1 ), measured growth at 100 µM is 19

growth at 100 µM reported for this molecule O=C(Nc1cccc(-n2cc(-c3ccncc3)c(-c3cc(O)cc(Cl)c3)n2)c1)c1cc(C(F)(F)F)cc(C(F)(F)F)c1 : -8

In plain terms, COc1cc(Cl)cc(-c2nn(-c3cccc(NC(=O)Nc4cc(C(F)(F)F)cc(C(F)(F)F)c4)c3)cc2-c2ccncc2)c1 has a documented growth at 100 µM of -44

// recorded growth at 100 µM for COc1cc(Cl)cc(-c2nn(-c3cccc(NC(=O)Nc4ccc(Cl)c(Cl)c4)c3)cc2-c2ccncc2)c1 : -24
